# Tested on: MDA-MB-231 breast
# experiment-description: NCI tumour cell line growth inhibition, 48 h
Catalogue of TGI values
Numeric answer only, unit µM assumed.

In the examples that follow, each entry is paired with its recorded TGI.
| substance-smiles | TGI / µM |
| --- | --- |
| COc1c(N2CCCCC2)c2c(=O)c3ccccc3oc2c2cc(C)oc12 | 44.2 |
| Nc1nc2ccccc2c2[nH]c3ccccc3c12 | 2.57 |

Let's switch to this compound now.
So what does the record say about TGI for "C[C@]12CCC(=O)C=C1CC[C@@H]1[C@@H]2CC[C@]2(C)C(=O)/C(=C/c3ccncc3)C[C@@H]12" ?
31.1

---

# Tested on: MOLT-4 leukemia
# experiment-description: NCI tumour cell line growth inhibition, 48 h
parameter: TGI

Recorded TGI for C=CC(C)CCC(C/C=C(\C)CCCC(C)C)C(=C)CCCC(C)C (stereo not given) , please?
> 100 µM

Item: OC1C2CCC3C2CC(C(O)(c2ccccc2)c2ccccc2)C13 (stereo not given)
74 µM

Let us now turn to "COc1ccc(OC)c2sc(N3C(=O)/C(=C/c4ccc(SC)cc4)N=C3c3ccccc3)nc12"
80.5 µM

Next entry: "O=C(O)COc1cc(-c2ccccc2F)nc2cc3c(cc12)OCO3"
> 100 µM

Field entry: "O=c1ncc(I)c[nH]1"
> 100 µM

---

# System: HOP-92 NSCLC
# experiment-description: NCI tumour cell line growth inhibition, 48 h
Catalogue of TGI values
Provide the reading as a plain figure in µM.

| compound | system-name | value-reported |
| --- | --- | --- |
| O=C1C2=C(C(=O)c3c(O)ccc(O)c31)N(c1cccnc1)Cc1ccccc1O2 | HOP-92 NSCLC | 0.459 |
| Cc1cc(C)c(-n2c(C)c(C)c(C#N)c2N)c(C)c1 | HOP-92 NSCLC | 74.4 |
| COC(=O)C12OCC34C(CC5C(C)C6=CC(=O)OC6=CC5(C)C3C(O)C1O)OC(=O)C(OC(C)=O)C24 (stereo not given) | HOP-92 NSCLC | 35.2 |
| Nc1c(C(=O)c2ccc(Cl)cc2)[nH]c(Nc2ccc(Cl)cc2)c1C(=S)Nc1ccccc1 | HOP-92 NSCLC | 22.2 |
| OCCNC(=S)Nc1ccc(-c2nc(N3C[C@H]4CC[C@@H](C3)O4)c3cccn3n2)cc1 | HOP-92 NSCLC | 0.161 |

API: the following record is the query input.
Give TGI (HOP-92 NSCLC) of the following compound: "COc1ccc(-c2c(-c3cc4c(c(OC)c3OC)OCO4)noc2N)cc1"
46.3

---

# System: KM12 colon
# experiment-description: NCI tumour cell line growth inhibition, 48 h
parameter: TGI

| compound | TGI |
| --- | --- |
| Nc1cc(N2CCOCC2)nc(=O)n1-c1ccccc1 | > 100 µM |
| CCCCCCCCCCCCCCCCOP(=O)(O)OP(=O)(O)OCC1OC(n2cnc3c(N)ncnc32)C(O)C1O (centres undefined) | > 100 µM |
| O=C(NCCN1CCOCC1)Nc1nc2ccc(Sc3nnc4ccc(-c5ccc(F)cc5)nn34)cc2s1 | > 100 µM |
| Cc1nc2ccccc2c(=O)n1Nc1ccc(C(=O)O)cc1 | > 100 µM |
| O=C(c1ccc(-c2ccccc2)cc1)N(Cc1cccnc1)C(=S)N(Cc1cccnc1)C(=O)c1ccc(-c2ccccc2)cc1 | > 100 µM |
| Cc1c2ccccc2c(CSC(=N)N)c2ccccc12 | 0.545 µM |

# query: TGI of entry "COc1ccc(-c2cnc(SCC(=O)c3c(C)n(C)n(-c4ccccc4)c3=O)n2-c2ccc(OC)cc2)cc1"
> 50 µM

Another compound to look at: "O=C(/C=C/c1ccccc1)Nc1ncc(Cc2ccccc2)s1"
13 µM

Would you mind doing "c1ccc(C2(c3ccccc3)S/C(=C3/SC(c4ccccc4)(c4ccccc4)c4ccccc43)c3ccccc32)cc1" as well?
> 100 µM
